Biological target: OGA (Homo sapiens)
Construct: HEK293 cells inducible for P301L mutant human Tau (isoform 2N4R) were established at Janssen; endogenous in cells; host or cells: HEK293 cells inducible for P301L mutant human Tau (2N4R)
Experiment: OGA cellular assay (ICC detection of O-GlcNAcylated proteins in HEK293 cells inducible for P301L mutant human Tau)
Assay type: cell-based
Conditions: HEK293 cells inducible for P301L mutant human Tau, 6 hours incubation; read-out: Cellular hOGA; pEC50 (converted)
Experimental readout: EC50 (nM)
# unit: nM | format: bare number

Entry under test: Cc1cc(OC2CCN(C(C)c3nc4c(cc3F)CCO4)CC2)cc(C)n1 (centres unmarked) [Compound 6] . Its EC50 was 17.4

Entry COc1cc(OC2CCN(C(C)c3ccc4sc(C)nc4n3)CC2)cc(C)n1 (centres unmarked) [Compound 16] ; EC50 = 126

Form field EC50, entry COc1cc(OC2CCN(C(C)c3nc4c(cc3F)OCCO4)CC2)ncc1C#N (centres unmarked) [Compound 153] : 200

Measured EC50, Cc1cnc(OC2CCN(C(C)c3nc4c(cc3F)OCCO4)CC2)cc1C (centres unmarked) [Compound 157] : 158

----------
Molecular target: recombinant human Meningioma Expressed Antigen 5 (MGEA5), also referred to as O-GlcNAcase (OGA) (Homo sapiens)
Construct: Full length OGA enzyme was purchased at OriGene (cat #TP322411); purchased OriGene TP322411
Assay: OGA biochemical assay (inhibition of FM-GlcNAc hydrolysis, fluorescence)
Details: read-out: Enzymatic hOGA, pIC50 (converted)
Quick reference: IC50 of the listed items.

Per the record, CC(c1nc2c(cc1F)OCCO2)N1CCC(Oc2ccc(C3CC3)nc2)CC1 (stereo not drawn) has IC50 of 7.94 nM

----------
Biological target: OGA (Homo sapiens, UniProt O60502)
Construct: HEK293 cells inducible for P301L mutant human Tau (isoform 2N4R) were established at Janssen; endogenous in cells; host or cells: HEK293 cells inducible for P301L mutant human Tau (2N4R)
Sequence (O60502 1-916): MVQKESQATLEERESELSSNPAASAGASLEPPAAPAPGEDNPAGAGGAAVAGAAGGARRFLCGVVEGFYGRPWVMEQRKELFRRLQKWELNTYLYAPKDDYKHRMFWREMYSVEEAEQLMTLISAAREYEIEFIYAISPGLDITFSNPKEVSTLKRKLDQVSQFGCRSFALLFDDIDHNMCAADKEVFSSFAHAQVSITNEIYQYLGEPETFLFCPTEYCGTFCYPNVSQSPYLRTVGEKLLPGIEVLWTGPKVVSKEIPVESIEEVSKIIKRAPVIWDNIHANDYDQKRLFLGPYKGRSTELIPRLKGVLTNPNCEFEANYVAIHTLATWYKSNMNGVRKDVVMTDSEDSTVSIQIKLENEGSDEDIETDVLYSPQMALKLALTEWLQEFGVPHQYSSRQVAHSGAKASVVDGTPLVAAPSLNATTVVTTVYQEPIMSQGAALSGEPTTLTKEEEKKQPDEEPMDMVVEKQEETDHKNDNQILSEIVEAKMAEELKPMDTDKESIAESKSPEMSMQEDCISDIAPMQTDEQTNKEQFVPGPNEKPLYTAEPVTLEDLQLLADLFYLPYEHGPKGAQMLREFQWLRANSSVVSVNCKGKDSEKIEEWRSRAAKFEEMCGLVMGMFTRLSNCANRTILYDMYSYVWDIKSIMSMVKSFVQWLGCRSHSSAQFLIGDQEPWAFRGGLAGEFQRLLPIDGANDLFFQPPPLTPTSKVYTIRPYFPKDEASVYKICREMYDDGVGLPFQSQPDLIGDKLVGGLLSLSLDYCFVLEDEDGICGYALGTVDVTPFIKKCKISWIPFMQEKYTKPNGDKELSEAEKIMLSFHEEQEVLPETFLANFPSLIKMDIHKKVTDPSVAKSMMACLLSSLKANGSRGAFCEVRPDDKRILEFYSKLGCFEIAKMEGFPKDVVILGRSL
Experiment: OGA cellular assay (ICC detection of O-GlcNAcylated proteins in HEK293 cells inducible for P301L mutant human Tau)
Type: cell-based
Conditions: HEK293 cells inducible for P301L mutant human Tau, 6 hours incubation; read-out: Cellular hOGA; pEC50 (converted)
The reader will find reported EC50 values listed item by item below.
Please state the figure in nM; there is no need to write the unit.

COc1cc(OC2CCN(C(C)c3ccc4c(n3)OCCO4)CC2)cc(C)n1 (centres unmarked) [Compound 14]; 126
Cc1cncc(OC2CCN(C(C)c3nc4c(cc3F)OCCO4)CC2)n1 (centres unmarked); 200

Reported EC50 ( Cc1cc(NC2CCN(C(C)c3nc4c(cc3F)OCCO4)CC2)cc(C)n1 (centres unmarked) ) = 50.1

For reference, reported EC50 for COc1cc(OC2CCN(C(C)c3ccc4c(n3)OCCO4)CC2)cc(C)n1 (single isomer, unassigned) [Compound 54] stands at 126

Recorded result, Cc1cc(OC2CCN(C(C)c3nc4c(cc3F)OCCO4)CC2)cc(C)n1 (centres unmarked) , EC50: 39.8

The measured EC50 associated with Cc1cc(OC2CCN(C(C)c3ccc4c(n3)OCCO4)CC2)ccn1 (centres unmarked) reads 631

EC50 reported for this molecule Cc1cc(O[C@H]2CCN(C(C)c3ccc4c(n3)OCCO4)C[C@H]2C)cc(C)n1 (some centres unmarked) : 126

Data origin, for the record: patent US20210122763A1
